Value source: ChEMBL document CHEMBL1140393

assay: Effect towards transactivation responsive RNA-binding protein at pH 7.5, (10 mM Tris-HCl, 150 mM KCl)by using fluorimetric competition assay; set-up: species or system Homo sapiens
pIC50: −log10 of the molar value.
readout-type: pIC50

Some entries whose results are on file:
- molecule: "NCC1OC(OC2C(N)CC(N)C(O)C2O)C(N)C(O)C1OCCCCCCNC(=O)CCC(=O)NCCCCCCOC1C(CN)OC(OC2C(N)CC(N)C(O)C2O)C(N)C1O (stereo unspecified)"
  pIC50: 6.32
- molecule: "CN(CC(=O)NCCCCCCO[C@@H]1[C@H](O)[C@H](N)C[C@@H](N)[C@H]1O[C@H]1O[C@@H](CN)[C@@H](O)[C@H](O)[C@@H]1N)CC(=O)NCCCCCCO[C@@H]1[C@H](O)[C@H](N)C[C@@H](N)[C@H]1O[C@H]1O[C@@H](CN)[C@@H](O)[C@H](O)[C@@H]1N"
  pIC50: 6.00
- molecule: "NC[C@H]1O[C@H](O[C@H]2[C@H](O)[C@@H](O)[C@H](N)C[C@@H]2N)[C@H](N)[C@@H](O)[C@@H]1O [NEAMINE]"
  pIC50: 4.40

[a] NCC1OC(OC2C(N)CC(N)C(O)C2OCCCCCCNC(=O)CCC(=O)NCCCCCCOC2C(O)C(N)CC(N)C2OC2OC(CN)C(O)C(O)C2N)C(N)C(O)C1O (stereo unspecified)
[b] CN(CC(=O)NCCCCCCO[C@H]1[C@H](O)[C@H](N)[C@@H](O[C@H]2[C@H](O)[C@H](O)[C@H](N)C[C@H]2N)O[C@H]1CN)CC(=O)NCCCCCCO[C@H]1[C@H](O)[C@H](N)[C@@H](O[C@H]2[C@H](O)[C@H](O)[C@H](N)C[C@H]2N)O[C@H]1CN
[c] NC[C@@H]1O[C@H](O[C@H]2[C@@H](O)[C@H](O[C@@H]3[C@@H](O)[C@H](N)C[C@H](N)[C@H]3O[C@H]3O[C@H](CN)[C@@H](O)[C@H](O)[C@H]3N)O[C@@H]2CO)[C@H](N)[C@@H](O)[C@@H]1O [FRAMYCETIN]
Exam item: Please give the order of these molecules when sorted by pIC50, largest value leading. When ranking, write the labels in the order the request describes.
Marked response: b, a, c
(b: 7.30, a: 6.05, c: 4.46)

###

assay: Effect against transactivation responsive RNA-binding protein at pH 7.4 (50 mM Tris-HCl […]) in fluorimetric competition assay; parameters: species or system Homo sapiens
readout-type: IC50 (nM)

- compound: "CN(CC(=O)NCCCCCCO[C@H]1[C@H](O)[C@H](N)[C@@H](O[C@H]2[C@H](O)[C@H](O)[C@H](N)C[C@H]2N)O[C@H]1CN)CC(=O)NCCCCCCO[C@H]1[C@H](O)[C@H](N)[C@@H](O[C@H]2[C@H](O)[C@H](O)[C@H](N)C[C@H]2N)O[C@H]1CN"
  measurement-unit: "nM"
  IC50: 330

[A] CN(CC(=O)NCCCCCCO[C@@H]1[C@H](O)[C@H](N)C[C@@H](N)[C@H]1O[C@H]1O[C@@H](CN)[C@@H](O)[C@H](O)[C@@H]1N)CC(=O)NCCCCCCO[C@@H]1[C@H](O)[C@H](N)C[C@@H](N)[C@H]1O[C@H]1O[C@@H](CN)[C@@H](O)[C@H](O)[C@@H]1N
[B] NC[C@@H]1O[C@H](O[C@H]2[C@@H](O)[C@H](O[C@@H]3[C@@H](O)[C@H](N)C[C@H](N)[C@H]3O[C@H]3O[C@H](CN)[C@@H](O)[C@H](O)[C@H]3N)O[C@@H]2CO)[C@H](N)[C@@H](O)[C@@H]1O
Exam item: Choose between A and B : whose measured IC50 value is numerically larger? Mark your selection by writing its label.
Marked response: B

[a] NCC1OC(OC2C(N)CC(N)C(O)C2O)C(N)C(O)C1OCCCCCCNC(=O)CCC(=O)NCCCCCCOC1C(CN)OC(OC2C(N)CC(N)C(O)C2O)C(N)C1O (stereo not given)
[b] NCC1OC(OC2C(N)CC(N)C(O)C2OCCCCCCNC(=O)CCC(=O)NCCCCCCOC2C(O)C(N)CC(N)C2OC2OC(CN)C(O)C(O)C2N)C(N)C(O)C1O (stereo not given)
Exam item: Choose between a and b : whose measured IC50 value is numerically larger? Mark your selection by writing its label.
Marked response: b
(b: 400 nM, a: 150 nM)
